# credit: patent US10517889B2

The following substances are listed with their measured % inhibition of SMAD7 mRNA expression values.
system: human SMAD7 mRNA; experiment: Antisense inhibition of human SMAD7 mRNA expression in Hep3B cells by 3-10-3 cEt gapmers, 10,000 nM, electroporation (Example 2); assay type: cell-based; conditions: Hep3B cells, electroporation with 10,000 nM antisense oligonucleotide, approximately 24 hours, primer probe set RTS5062, relative to untreated control cells
Strand notation (5' to 3'): a small letter for the sugar, then the base; units joined by * are phosphorothioate-linked, units joined directly phosphodiester-linked; [ ] holds rarer units or linkages, { } end groups; capitals alone tell only the bases. k = constrained ethyl (cEt); [5mC] = 5-methylcytosine; d = 2'-deoxy (DNA)

substance: 799104 (antisense kA*kG*kT*d[5mC]*d[5mC]*dG*dG*dG*dA*dA*dA*dA*dA*k[5mC]*k[5mC]*kT) [compound 799104]
% inhibition of SMAD7 mRNA expression, %: 40
//
substance: 800109 (antisense kA*k[5mC]*kA*dG*d[5mC]*d[5mC]*dA*d[5mC]*dA*dA*dG*dT*d[5mC]*kA*k[5mC]*kA) [compound 800109]
% inhibition of SMAD7 mRNA expression, %: 75
//
substance: 798691 (antisense k[5mC]*kG*k[5mC]*dA*d[5mC]*dG*dG*d[5mC]*dT*d[5mC]*d[5mC]*dT*d[5mC]*k[5mC]*kA*kG) [compound 798691]
% inhibition of SMAD7 mRNA expression, %: 42
//
substance: 799399 (antisense kT*k[5mC]*k[5mC]*dA*dA*dA*dT*dT*dT*dG*dA*dA*dG*kA*kA*kT) [compound 799399]
% inhibition of SMAD7 mRNA expression, %: 0
//
substance: 799217 (kG*kT*kT*dA*dT*dT*dT*dG*d[5mC]*dA*dT*dT*dT*kA*kT*kA; antisense) [compound 799217]
% inhibition of SMAD7 mRNA expression, %: 0
//
substance: 798710 (antisense k[5mC]*k[5mC]*k[5mC]*d[5mC]*dA*dT*dG*d[5mC]*dG*d[5mC]*dT*d[5mC]*dG*kG*k[5mC]*kT) [compound 798710]
% inhibition of SMAD7 mRNA expression, %: 54
//
substance: 798660 (kT*kG*k[5mC]*d[5mC]*d[5mC]*d[5mC]*dA*d[5mC]*d[5mC]*d[5mC]*d[5mC]*dG*d[5mC]*kG*k[5mC]*kG; antisense) [compound 798660]
% inhibition of SMAD7 mRNA expression, %: 38
//
substance: 799234 (kA*kA*kA*d[5mC]*dA*dT*dT*d[5mC]*dA*dG*d[5mC]*dT*dA*kG*kG*kT; antisense) [compound 799234]
% inhibition of SMAD7 mRNA expression, %: 13
//
substance: 798674 (antisense k[5mC]*kA*kG*dG*d[5mC]*dG*dA*d[5mC]*dA*dG*d[5mC]*dA*dG*k[5mC]*kA*kG) [compound 798674]
% inhibition of SMAD7 mRNA expression, %: 39
//
substance: 799188 (antisense kT*kG*k[5mC]*dT*dT*d[5mC]*dT*d[5mC]*dT*dT*dG*dT*dT*k[5mC]*kA*kT) [compound 799188]
% inhibition of SMAD7 mRNA expression, %: 43
//
substance: 798663 (kT*kG*k[5mC]*dG*d[5mC]*dT*d[5mC]*d[5mC]*dG*dG*d[5mC]*dT*dG*k[5mC]*k[5mC]*k[5mC]; antisense) [compound 798663]
% inhibition of SMAD7 mRNA expression, %: 41
//
substance: 799106 (antisense kT*kT*kT*dT*d[5mC]*dT*dA*dA*dG*dT*d[5mC]*d[5mC]*dG*kG*kG*kA) [compound 799106]
% inhibition of SMAD7 mRNA expression, %: 34
